- Test system: E. coli TESEC Mtb Alr
- TEST PROTOCOL: growth (OD600 after 10 h); higher = more growth (less inhibition)
- CONDITIONS: arabinose 1000000 nM; compound 0.1 mM; raw OD600 reference: median of DMSO wells 0.193, cell-free background 0.041
Structures can show the parent of a compound that is named as a salt.
RECORDED METRIC: growth
Quick one: just the number, no unit, thanks!

Solved entries:
{"COMPOUND": "Cc1scc2c1N(C(=O)CN1CCN(C)CC1)c1ccccc1NC2=O [Telenzepine dihydrochloride]", "RECORDED METRIC": "growth", "MEASUREMENT": 0.162}
{"COMPOUND": "CCCSc1ccc2[nH]c(NC(=O)OC)nc2c1 [Albendazole]", "RECORDED METRIC": "growth", "MEASUREMENT": 0.146}
{"COMPOUND": "C[C@]12C=CC(=O)C=C1CC[C@@H]1[C@@H]2[C@@H](O)C[C@@]2(C)[C@H]1CC[C@]2(O)C(=O)CO [Prednisolone]", "RECORDED METRIC": "growth", "MEASUREMENT": 0.147}
{"COMPOUND": "COc1ccc(C(=O)c2ccccc2)c(O)c1 [Oxybenzone]", "RECORDED METRIC": "growth", "MEASUREMENT": 0.0914}
{"COMPOUND": "CC(=O)OCC(=O)[C@@]1(O)CC[C@H]2[C@@H]3CCC4=CC(=O)CC[C@]4(C)[C@@]3(F)[C@@H](O)C[C@@]21C [Fludrocortisone acetate]", "RECORDED METRIC": "growth", "MEASUREMENT": 0.107}

Request: Report measured growth; entry is CCN1CCCC(OC(=O)C(c2ccccc2)c2ccccc2)C1 (stereo unspecified) [Piperidolate hydrochloride]
Response: 0.157

Request: Report measured growth; entry is CCCCN(CCCC)CCCOC(=O)c1ccc(N)cc1 [Butacaine]
Response: 0.189

Request: Report measured growth; entry is CN(C)CCOC(c1ccccc1)c1ccccc1 [Diphenhydramine hydrochloride]
Response: 0.151

Request: Report measured growth; entry is Nc1ccc(S(=O)(=O)Nc2cnc3ccccc3n2)cc1 [Sulfaquinoxaline sodium salt]
Response: 0.107

Request: Report measured growth; entry is CN1CCN(C2=Nc3cc(Cl)ccc3Nc3ccccc32)CC1 [Clozapine]
Response: 0.1

Request: Report measured growth; entry is C#CCN(C)CCCOc1ccc(Cl)cc1Cl [Clorgyline hydrochloride]
Response: 0.0744

Request: Report measured growth; entry is Nc1ncn(C2OC(CO)C(O)C2O)c(=O)n1 (stereo unspecified) [Azacytidine-5]
Response: 0.0465

Hello, the source for this data is the supplement of paper PMC9262897, in case you need it.
